studyTarget: Neuronal acetylcholine receptor; alpha3/beta4 (Homo sapiens, UniProt P30926+P32297)
Sequence (P30926 whole entry): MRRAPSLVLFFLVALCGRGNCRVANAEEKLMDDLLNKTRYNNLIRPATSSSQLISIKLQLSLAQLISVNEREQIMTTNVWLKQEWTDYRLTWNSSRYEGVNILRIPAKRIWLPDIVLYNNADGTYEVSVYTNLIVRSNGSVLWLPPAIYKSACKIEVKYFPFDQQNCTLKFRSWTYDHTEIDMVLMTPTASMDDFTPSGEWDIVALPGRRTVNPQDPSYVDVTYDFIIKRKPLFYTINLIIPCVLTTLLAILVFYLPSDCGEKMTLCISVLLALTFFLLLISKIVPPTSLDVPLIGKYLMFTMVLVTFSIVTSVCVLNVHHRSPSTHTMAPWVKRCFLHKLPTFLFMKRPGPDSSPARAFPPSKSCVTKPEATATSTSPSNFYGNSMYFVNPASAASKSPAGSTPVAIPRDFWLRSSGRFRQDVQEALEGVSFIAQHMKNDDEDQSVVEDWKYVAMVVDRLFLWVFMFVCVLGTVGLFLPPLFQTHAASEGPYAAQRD
Sequence (P32297 whole entry): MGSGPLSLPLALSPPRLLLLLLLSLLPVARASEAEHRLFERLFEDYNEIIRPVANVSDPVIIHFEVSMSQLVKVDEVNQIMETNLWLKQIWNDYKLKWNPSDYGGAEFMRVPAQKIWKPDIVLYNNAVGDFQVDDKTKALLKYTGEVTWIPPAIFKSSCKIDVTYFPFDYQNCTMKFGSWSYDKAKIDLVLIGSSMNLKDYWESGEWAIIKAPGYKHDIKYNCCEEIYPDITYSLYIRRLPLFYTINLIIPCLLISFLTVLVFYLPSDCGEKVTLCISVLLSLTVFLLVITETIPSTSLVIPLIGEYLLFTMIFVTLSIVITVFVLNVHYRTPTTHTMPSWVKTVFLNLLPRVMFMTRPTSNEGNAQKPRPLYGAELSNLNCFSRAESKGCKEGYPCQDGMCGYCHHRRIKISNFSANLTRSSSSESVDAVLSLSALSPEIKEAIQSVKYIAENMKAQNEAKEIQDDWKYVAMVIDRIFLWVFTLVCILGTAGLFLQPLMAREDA
test: Displacement of [3H]-epibatidine from human alpha3beta4 transfected in HEK293 cell membranes preincubated for 5 mins followed by [3H]-epibatidine addition and measured after overnight incubation by liquid scintillation beta counter analysis
propertyName: pKi
Answers are plain numbers, as −log10 of the molar value.

// worked examples, pKi included
[[record]]
structureassmiles = "CN(C)c1ccc2c(c1)O[C@H]([C@@H]1CCCN1C)CO2"
studytarget = "Neuronal acetylcholine receptor; alpha3/beta4 (Homo sapiens, UniProt P30926+P32297)"
numericresult = 5.66

[[record]]
structureassmiles = "CN1CCC[C@H]1[C@H]1COc2ccc(O)cc2O1"
studytarget = "Neuronal acetylcholine receptor; alpha3/beta4 (Homo sapiens, UniProt P30926+P32297)"
numericresult = 6.15

[[record]]
structureassmiles = "CN1CCC[C@H]1[C@@H]1COc2ccc(N)cc2O1"
studytarget = "Neuronal acetylcholine receptor; alpha3/beta4 (Homo sapiens, UniProt P30926+P32297)"
numericresult = 7.72

[[record]]
structureassmiles = "CN1CCC[C@H]1[C@@H]1COc2cc([N+](=O)[O-])ccc2O1"
studytarget = "Neuronal acetylcholine receptor; alpha3/beta4 (Homo sapiens, UniProt P30926+P32297)"
numericresult = 4.82

[[record]]
structureassmiles = "CN1CCC[C@H]1[C@H]1COc2cc([N+](=O)[O-])ccc2O1"
studytarget = "Neuronal acetylcholine receptor; alpha3/beta4 (Homo sapiens, UniProt P30926+P32297)"
numericresult = 5.32

[[record]]
structureassmiles = "CN1CCC[C@H]1[C@H]1COc2c(N)cccc2O1"
studytarget = "Neuronal acetylcholine receptor; alpha3/beta4 (Homo sapiens, UniProt P30926+P32297)"
numericresult = 4.89

[[record]]
structureassmiles = "CN1CCC[C@H]1[C@@H]1COc2c(O)cccc2O1"
studytarget = "Neuronal acetylcholine receptor; alpha3/beta4 (Homo sapiens, UniProt P30926+P32297)"
numericresult = 5.41

[[record]]
structureassmiles = "CN1CCC[C@H]1[C@H]1COc2ccc(N)cc2O1"
studytarget = "Neuronal acetylcholine receptor; alpha3/beta4 (Homo sapiens, UniProt P30926+P32297)"
numericresult = 6.74


INPUT: Item under review: CC(=O)Nc1ccc2c(c1)O[C@H]([C@@H]1CCCN1C)CO2 . Reported pKi?
OUTPUT: 5.72
